- PROTOCOL_TEXT: folding stability dG unfold from trypsin proteolysis; higher = more stable
List of folding stability dG unfold values.
Report the figure in kcal/mol without appending any unit label.

>>> quantitative_result("SAGGMVEIELVPMSEEELKKLREELPENEILIVVKEDGLVLIVRVEKSEEEAEKLAEELRKLLEELPSAGGS [r16_311_TrROS_Hall]")
2.05
>>> quantitative_result("SAGGSAGGSAGKPLKVKKFEVELLVRDPETNRWYRIRAEVYRVEGLPDLFIIKLEIEELPSAGGSAGGSAGG [r11_1029_TrROS_Hall]")
3.96
>>> quantitative_result("SAGGSAGGGNWERVEFTFTKRVYDPKNGKPMKDVMVEIDVYRDPNEGALEIEIEMPPGFDYIMISAGGSAGG [r6_206_TrROS]")
2.79

## Input Requested field: folding stability dG unfold. Item: SAGGSAGGSAGGMEISEKLREYIEKLGKKVSEEEALAIAEEKAKELKEKGIEDVTIVLPVSAGGSAGGSAGG [r7_512_JUSTAS]
## Output -0.0343

## Input Try this sequence next: SAGGSAGGSAGGSMVTLTVEKTFTSLLKTPESELIPVTSTVTEEVTIPESEATEELIKELSAGGSAGGSAGG [r7_777_JUSTAS]
## Output 0.388

## Input How about SAGGSISIPVYSPEDVIEAIEFIERYLREKGFPENEEATRIIVERLEDGRYRVIIEYPTRTIIIDDSAGGSA [r2_120_TrMRF] ?
## Output 2.9

## Input Would you kindly repeat that for SAGGSAGGSGSVEFETDLKDPNIRKAIEEALKEGKKTAVIPFPDGAEGRIVEVEGDKVRVEISSAGGSAGGS [r12_334_TrMRF] ?
## Output 0.0322

## Input Likewise for SAGGMKTFTLENPPLAPPDRPLGGSTLKLPDGTVLVRINLPSGETILLPSYEELEKLKASGEPVSVTASSAG [r5_42_JUSTAS] ?
## Output 0.285

## Input # iterate: MKTITITVTDAPPGTVTIRVEIEREDGSTIEIEKEITVKPGDTITITLKEDEPYKIKKIEIYHNGKKIEITS [r1_70_TrROS_Hall]
## Output 2.58

## Input Quick one: SASSSFTLPGLKLEVETQKVSTFPTPDGTPVVLYETTIHFLEVPESLRAEGKPLSLESSVKKLKVVPLPSAG [r14_942_JUSTAS]
## Output 0.277

## Input Also check SAGGKPKEIKIKVEVEEKEVNGKKYLVVKIELEVDGKKIEIELVVEMSEEEKEKAKKLAEELLKKLKSAGGS [r8_480_TrROS_Hall]
## Output 2.6

## Input Now give it for SMTIKLPSKDFKLETLPDGTIKLTVKEPDGTVVTYTFPKGDKITKIEKITPDTIKLTFEKKPRLNPEILLSA [r9_501_JUSTAS] too.
## Output 2.16

## Input Now the same for SAGGSAGGSAGGSYTVSEIPEEGLVLKTLPNGVVTRYKVSPDGSLEEIATFEPGNGVLIKSAGGSAGGSAGG [r7_659_JUSTAS]
## Output -0.0116

## Input Cool, now SAGGSAGGSAKPVYKIRIVVKKDGKEFVKEIEVPEDEEEAEALAKELAKKPEVEKVEVEKVSAGGSAGGSAG [r3_310_TrROS_Hall]
## Output 0.739

====

- PROTOCOL_TEXT: folding stability dG unfold from trypsin proteolysis; higher = more stable
Use 2 kcal/mol as the dividing line for folding stability dG unfold, with the line itself on the Yes side and lower values as No.

>>> category_label("SAGGSAGGSAGGVSPEANIKEVSKDPKTGLTTSLAKDPNSDNEITITKDSSGNSSINISSAGGSAGGSAGGS [r10_450_JUSTAS]")
"No"

## Input Reported folding stability dG unfold reaches at least 2 kcal/mol for SAGGSAGGSAGKPEVEVETRLIKIDEEKGYYLRVTRVRVKNEDGSEFEFLSIEIIPKEDLSAGGSAGGSAGG [r11_51_TrROS_Hall] ?
## Output Yes

## Input Entry SMGVKIEIDKEIIEKAIEEGKTFEADAKIKIEAYNPKTGKKIAEAEKIVKIRLEIEPPKAEPDPETGKPESA [r9_396_TrMRF] please
## Output No

## Input // next record SAGGSAGGRKTRRLVLEVDDIPEGVSAEELTEEELRRLGLPPDARIRVVRRPDGRLLVVIEVRESAGGSAGG [r6_551_TrROS_Hall]
## Output No

## Input Try this sequence too: SAGGSAGGSAGGSGMTPIPLEVLERKVTEYDPKNGKITVEALAILPDGTPVKLKFTVELSAGGSAGGSAGGS [r4_184_JUSTAS]
## Output No

## Input Next record, please: SAGGMYEIVDLLSVEPDPETGALTRTFLLRDPDSDRFLVAEVRIDPENPDRVEIRLYDEDGNLIAEFPSAGG [r13_658_TrMRF]
## Output Yes

====

- PROTOCOL_TEXT: folding stability dG unfold (combined trypsin and chymotrypsin); higher = more stable
Known folding stability dG unfold of a selection of sequences

Consider the worked cases shown below.
>>> result("SAGGMGSEKLPLTLTLPGDRKLEVTVYRVGDKLYVEIKLTHGSKPLGTLTVEADSLDEVLDAAKEAASAGGS [r16_55_TrMRF]")
"13.7 kJ/mol"
>>> result("SSSSTLVSSYTLTLKDEKGNEITLKVDVYKFPSGSYRVEITRPDGTVTEYEFPASEPPTEEKIKELALKKSA [r9_616_JUSTAS]")
"> 25.1 kJ/mol"
>>> result("SEKPPKVKIVSVEYNPETGTVTITVEVEPGQKVRIFVRNSDGSVQEIDLESKTITINLPPGAEIVRIEVLSA [r9_113_TrROS_Hall]")
"17.1 kJ/mol"
>>> result("SAGGSAGGSAAPVPPDRTLTVYRDPNTDKYTIRTPDGSVTVSPITPEELRAAGAPVVYLGPESAGGSAGGSA [r18_125_JUSTAS]")
"-1.24 kJ/mol"
>>> result("SAGGSAGGSAHKITITLPNGNPPEIVVEFETEEEAKEKAEEIIKKLEEEGYPKENLTVTIEKESAGGSAGGS [r12_295_JUSTAS]")
"7.77 kJ/mol"
>>> result("SAGGSAGGSAGGKPKKVILIEADTLEEALAAAEALAPPGAKVTVTLVERDGKLYLLVTVDSAGGSAGGSAGG [r7_877_TrROS_Hall]")
"14 kJ/mol"

Let us move to another entry and its folding stability dG unfold.
## Input folding stability dG unfold for SAMKYVELKLTITVPKEKEEEIEKLKKALEKLGAEIVSVEVEYDEETEEVTVTVTIRIENLSEEELKKASAG [r14_956_TrROS_Hall] ?
## Output 11.2 kJ/mol

====

folding stability dG unfold overview
- PROTOCOL_TEXT: folding stability dG unfold from chymotrypsin proteolysis; higher = more stable
Kindly report the value followed by its unit.

Here are 5 sequences together with their reported answers.
>>> result("SAGGSAGGSAGGKRTLLIRVPPGASVEQVLEELKRLLPPGAKITVELDPETRTLRVTIDSAGGSAGGSAGGS [r10_163_TrROS_Hall]")
"4.12 kcal/mol"
>>> result("SAGGGMSVSELKKFFPNLKPGATFVLKDPNSDRTGTGTLLSDGTIKVQLPGSEVTVPDDTLVVSISASAGGS [r8_162_JUSTAS]")
"-0.237 kcal/mol"
>>> result("SAGGMTLEELKEALKKLPPNVKEVKITVVEKNGKLVVVVEVNGKKLVIEFDSEEERKLAEELVKELLSSAGG [r13_287_TrROS_Hall]")
"3.13 kcal/mol"
>>> result("SAPDKIEIPITFPNGYTFWIKIDPDRIRVTWMDNGLRREKEITPDGMIKLDFRMPNGRPIMSPTIPLEDSAG [r14_213_TrROS]")
"1.93 kcal/mol"
>>> result("SAGMITLEKTVPLSEATPEKAKEIAEELLEKLKKEGLPEGLEKTSIEITELPGDELIVKVPTKIVSKESAGG [r19_87_JUSTAS]")
"-0.556 kcal/mol"

## Input Quick check: folding stability dG unfold of SMTLTETKVLTTETLSGEEFAKRSGVPVEEIRKSGVKYNVTVTPVEVTYYDPETGKTYKRTSTTVTITPESA [r9_382_JUSTAS] ?
## Output 0.842 kcal/mol

====

- PROTOCOL_TEXT: folding stability dG unfold (combined trypsin and chymotrypsin); higher = more stable
MEASURED_ATTRIBUTE: folding stability dG unfold (kcal/mol)
Please state the figure in kcal/mol; there is no need to write the unit.

>>> quantitative_result("SAGGYKFTIIARFDSVEEAKEWVEEIIRDIFPDNGIEVEVEVETDPENGGVYVKATIEVPPPDPDDFSAGGS [r8_17_TrROS]")
4.01
>>> quantitative_result("SAGGSAGGSDDTAEFEGPVNVTLTLDGKPVNINAWVTRLPPGWFRIVLPDGVIELPGGNLRVGSAGGSAGGS [r12_790_TrMRF]")
1.16
>>> quantitative_result("SAGGKKKPKIRIKVEIDGKTVEVEVESPEELVEALKELGFEVEVVEVTEKTVVIKLKDGKLIRIEKESAGGS [r8_365_TrROS_Hall]")
2.02

## Input Quick one: folding stability dG unfold of SNELAKEIADELKKQGYEVKDVEVQYSPDDGMVEIEARIRHPDDGRQYRIDIHVNPDDGKITQVKIEPRPSA [r9_814_TrROS] ?
## Output 0.825

## Input Try this sequence next: SAGGKDGKPKPKVEPEITVQFYIPLPPDDLTPEEIAQWMSDHFGFPFTNVEIERHPEDNYYRVSFTIRSAGG [r13_457_TrROS]
## Output 2.4

## Input Same lookup for SAGGSAGGSGKVLVLPLPGGTVEEVKEIAKEIKEKYPNAKVTTEVFPTPEGDLVAVVTLENPESAGGSAGGS [r12_425_TrMRF] , please.
## Output 0.0277
